Value source: paper PMC9482650

biological target: MAGI3_2, Q5TCQ9; assay: holdup assay; parameters: key: below the threshold = too weak to quantify, mostly under pKd 3.1 to 4; settings: plain residues with an end cap or a label only (N-terminal biotin on a linker: ado-ado)
Sequence (Q5TCQ9 398-503): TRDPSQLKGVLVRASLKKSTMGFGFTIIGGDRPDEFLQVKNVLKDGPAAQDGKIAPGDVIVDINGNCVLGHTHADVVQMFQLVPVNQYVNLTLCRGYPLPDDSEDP

| BINDER | pKd |
| --- | --- |
| TISFTQTSQF [SLC1A1, P43005] | below the threshold |
| GEDRSPPTAL [MKNK1, Q9BUB5] | below the threshold |
| AEASVACSLC [PTGIR, P43119] | below the threshold |
| KKMLQRRTLL [OR8G1, Q15617] | 4.55 |
| STKRKLASAV [NCF1, P14598] | 5.35 |
